Test system: mice with acute hyperuricemia
testMethodNotes: In vivo activity of reducing serum uric acid (acute hyperuricemia induced with xanthine and potassium oxonate)
Set-up: species or system Kunming mice
conditions: batch 2; hyperuricemic Kunming mice; Model 576.5 ± 120.5, Blank 262 ± 43.6, Blank (CMC-Na) 286 ± 90.9
quantityKind: BUA (blood uric acid concentration) (µM)
State the answer as a number, implicitly in µM.

# value lookup — system mice with acute hyperuricemia, readout BUA (blood uric acid concentration), item CCOC(=O)CSc1nc2ncccc2n1-c1ccc(C2CC2)c2ccccc12 [Compound T1]
353.5

What do we get for CC(C)(Sc1nc2ncccc2n1-c1ccc(C2CC2)c2ccccc12)C(=O)O [Compound T8] ?
295.2

// query: O=C(O)CSc1nnc(Br)n1-c1ccc(C2CC2)c2ccccc12 [RDEA594, Lesinurad, reference compound]
409.5

For CCOC(=O)C(C)(C)Sc1nc2ncccc2n1-c1ccc(C2CC2)c2ccccc12 [Compound T4] then?
306

Same lookup for O=C(O)CCCSc1nc2ncccc2n1-c1ccc(C2CC2)c2ccccc12 [Compound T6] , please.
330

Now consider O=C(O)CSc1nc2ncccc2n1-c1ccc(C2CC2)c2ccccc12 [Compound T5] and answer again.
342

Could you do the same for CCOC(=O)CCCSc1nc2ncccc2n1-c1ccc(C2CC2)c2ccccc12 [Compound T2] , please?
334

Request: CC(Sc1nc2ncccc2n1-c1ccc(C2CC2)c2ccccc12)C(=O)O (stereo not drawn) [Compound T7]
189.7

Repeat with CCOC(=O)C(C)Sc1nc2ncccc2n1-c1ccc(C2CC2)c2ccccc12 (stereo not drawn) [Compound T3]
339
